- EXPERIMENTAL TARGET: NAD-dependent protein deacetylase HST2 (Saccharomyces cerevisiae S288c, UniProt P53686)
- Sequence (P53686 whole entry): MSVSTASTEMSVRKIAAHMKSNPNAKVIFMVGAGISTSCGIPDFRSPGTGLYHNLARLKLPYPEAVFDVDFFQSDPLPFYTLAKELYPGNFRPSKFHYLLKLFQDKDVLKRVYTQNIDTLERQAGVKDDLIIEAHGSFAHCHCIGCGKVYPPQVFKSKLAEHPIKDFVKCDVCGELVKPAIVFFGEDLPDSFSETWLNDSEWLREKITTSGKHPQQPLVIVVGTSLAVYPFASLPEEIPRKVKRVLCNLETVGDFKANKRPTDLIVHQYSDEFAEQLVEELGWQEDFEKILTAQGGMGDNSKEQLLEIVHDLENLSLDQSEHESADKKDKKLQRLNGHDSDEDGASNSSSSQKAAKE
- PROTOCOL DESCRIPTION: Inhibition of yeast Hst2 by fluorimetric assay
- RECORDED CONDITIONS: read-out: IC50
RECORDED ENDPOINT: pIC50
Please report pIC50 as the negative decimal logarithm of the molar concentration, giving only the number.

Query: # pIC50 lookup, item Cc1ccc2[nH]c3c(c2c1)CCCCC3C(N)=O (stereo not drawn)
Response: 4.84

Query: Here is the next compound: `Cc1cc(Cl)c(O)c(Cc2c(O)c(Cl)cc(Cl)c2Cl)c1Cl`
Response: 4.90

Query: Here is the next compound: NC(=O)C1CCCCc2c1[nH]c1ccc(Cl)cc21 (stereo not drawn)
Response: 5.89

Query: Here is the next compound: COCC#CC1c2cc(O)c(OC)cc2CCN1Cc1ccc(OC)cc1 (stereo not drawn)
Response: 3.59

Query: Here is the next compound: `O=C(O)CCN1Cc2ccccc2C1=O`
Response: 4.70

Query: Here is the next compound: Cn1cc(C2=C(c3cn(CCCSC(=N)N)c4ccccc34)C(=O)NC2=O)c2ccccc21 [BISINDOLYLMALEIMIDE IX]
Response: 4.70

Reference source for all entries: ChEMBL document CHEMBL1152589
